Data provenance is paper PMC6632053.

I'd be grateful if you could share measured pKd for these entries.
molecular target: T1, human Mdm2 (1–125) (human); test: fluorescence polarisation; competition: unlabeled peptide titrated against the complex of 250 nM Mdm2 (1–125) and 50 nM FAM-labeled 12/1 peptide; apparent Kd from the tracer's Kd of […] nM; PBS pH 7.4, 0.1% Tween 20; triplicate; details: both partners purified
T1 construct: Mdm2, human, residues 1-125; the stretch after the TEV site ENLYFQG of the fusion protein; No cleavage of the tags is described, so it is open whether the fusion or cleaved Mdm2 stood in the FP and ITC assays; also called purified recombinant human Mdm2 protein (amino acids 1–125); source: E. coli BL21 (DE3) Rosetta T1R, purified (Ni-NTA, gel filtration)
T1 sequence (chain, as listed by the source): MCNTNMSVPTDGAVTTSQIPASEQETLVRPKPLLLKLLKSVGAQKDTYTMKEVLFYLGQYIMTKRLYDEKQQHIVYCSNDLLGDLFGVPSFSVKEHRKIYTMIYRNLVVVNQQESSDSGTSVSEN
Bridge positions count the residues as written; N and C are the ends. Square brackets hold non-standard residues; d marks the D form. Primed or numbered codes have the meaning given here. Lys(N3) = [N-]=[N+]=NCCCC[C@H](N)C(=O)O; R8 = C=CCCCCCC[C@@](C)(N)C(=O)O; S5 = C=CCCC[C@](C)(N)C(=O)O; NMeA = CN[C@@H](C)C(=O)O; Cba′ = not defined here; βAla = NCCC(=O)O
Answers are plain numbers, as −log10 of the molar value.

Provide pKd values for the following items, in order.
1. Ac-[Lys(N3)][βAla]LTF[R8]GYWAQ[Cba′][S5]SAA-NH2 (staple 6-13; reading uncertain) [MP-081 E5G]
2. Ac-[Lys(N3)][βAla]LTF[R8]EYWAG[Cba′][S5]SAA-NH2 (staple 6-13; reading uncertain) [MP-081 Q9G]
3. Ac-[Lys(N3)][βAla]LTF[R8]EYW[NMeA]Q[Cba′][S5]SAA-NH2 (staple 6-13; reading uncertain) [MP-081 A8(N-methyl L-Ala)]

Result block:
1. 7.21
2. 7.38
3. 6.17
